Below are pIC50 values measured for PIK3CB (Human).
pIC50: −log10 of the molar value.

// known answers, use as guide
CC(C)(C)NS(=O)(=O)c1cncc(-c2ccc3nc(NC(=O)NCC(=O)N4CCC(N)CC4)nn3c2)c1 6.00 to 7.00
O=C(NCC(=O)N1CCCC1)Nc1nc2ccc(-c3cncc(C(F)(F)F)c3)cn2n1 < 5.00
CN(C)[C@H]1CCN(C(=O)CNC(=O)Nc2nc3ccc(-c4cncc(S(=O)(=O)NC(C)(C)C)c4)cn3n2)C1 6.00 to 7.00
CN1CCN(C(=O)CNC(=O)Nc2nc3ccc(-c4cncc(S(=O)(=O)NC(C)(C)C)c4)cn3n2)CC1 6.00 to 7.00

Consider the additional compound presented here.
Which pIC50 value is on record for `CC(C)(C)NS(=O)(=O)c1cncc(-c2ccc3nc(NC(=O)NCCC(=O)N4CCCC4)nn3c2)c1` ?
6.00 to 7.00
